Organism: Rattus norvegicus
Test: Open TG-GATES - Regimen: Single
Type: toxicity, organism-based, Sprague-Dawley
Design: regimen Single, gender Male, age 6 weeks
Settings: in vivo, po, 0 mg/kg, 9 h, route gavage, dose level Control
Measure name: TERMINAL_BW (g)
Answers are plain numbers, in g.

compound=CCN(CC)C(=S)SSC(=S)N(CC)CC measure_name=TERMINAL_BW readout_unit=g reported_value=212.5
compound=C=C[C@H]1C[N@@]2CC[C@H]1C[C@@H]2[C@@H](O)c1ccnc2ccc(OC)cc12 measure_name=TERMINAL_BW readout_unit=g reported_value=212.8
compound=COc1ccc([C@@H]2Sc3ccccc3N(CCN(C)C)C(=O)[C@@H]2OC(C)=O)cc1 measure_name=TERMINAL_BW readout_unit=g reported_value=180.5
compound=O=c1ccc2ccccc2o1 measure_name=TERMINAL_BW readout_unit=g reported_value=180

Now turn to the next compound.
Give reported TERMINAL_BW value for CN(CCOc1ccc(CC2SC(=O)NC2=O)cc1)c1ccccn1.O=C(O)/C=C\C(=O)O (stereo not given) [ROSIGLITAZONE MALEATE]
204

* * *

Give TERMINAL_BW for every item shown.
Species: Rattus norvegicus
Test: Open TG-GATES - Regimen: Single
Assay type: toxicity, organism-based, Sprague-Dawley
Parameters: regimen Single, gender Male, age 6 weeks
Settings: in vivo, po, 0 mg/kg, 3 h, route gavage, dose level Control
Answers are plain numbers, in g.

Take each entry in turn and give its TERMINAL_BW.
1. CCO
2. Nc1ccc(Cc2ccc(N)cc2)cc1
3. CN(CCOc1ccc(CC2SC(=O)NC2=O)cc1)c1ccccn1.O=C(O)/C=C\C(=O)O (stereo not given) [ROSIGLITAZONE MALEATE]
4. CCCCNC(=O)NS(=O)(=O)c1ccc(C)cc1 [TOLBUTAMIDE]
5. CCN(CC)C(=S)SSC(=S)N(CC)CC

1: 207; 2: 209.4; 3: 206.3; 4: 203.9; 5: 212.4

* * *

Provide the recorded Fbg for the entries that follow.
Organism: Rattus norvegicus
Assay: Open TG-GATES - Regimen: Daily Repeat
Assay type: toxicity, organism-based, Sprague-Dawley
Design: regimen Daily Repeat, gender Male, age 6 weeks
Conditions: in vivo, po, 300 mg/kg, […], tissue Blood, route gavage, dose level Middle, time 28 day
One number for each entry, in mg/dL.

Recorded Fbg, per entry:
compound=CC(=O)[C@@]1(O)CC[C@H]2[C@@H]3C=C(Cl)C4=CC(=O)CC[C@]4(C)[C@H]3CC[C@@]21C reported_value=313.2
compound="CC(S)C(=O)NCC(=O)O (centres undefined)" reported_value=323.4
compound=O=C(O)c1ccccc1Nc1ccccc1 reported_value=314.2

API: the following record is the query input.
Provide one value: measured Fbg of CCCCNC(=O)NS(=O)(=O)c1ccc(C)cc1 [TOLBUTAMIDE]
266.6

* * *

Species on record: Rattus norvegicus
Test: Open TG-GATES - Regimen: Daily Repeat
Format: toxicity, organism-based, Sprague-Dawley
Design: regimen Daily Repeat, gender Male, age 6 weeks
Details: in vivo, po, 100 mg/kg, […], tissue Plasma, route gavage, dose level Low, time 14 day
Measure name: PL (mg/dL)
Numbers only, in mg/dL.

The examples below pair each entry with its known result.
compound=O=C(O)c1ccccc1Nc1ccccc1 measure_name=PL reported_value=158.4
compound=CC(=O)[C@@]1(O)CC[C@H]2[C@@H]3C=C(Cl)C4=CC(=O)CC[C@]4(C)[C@H]3CC[C@@]21C measure_name=PL reported_value=142.6
compound="CC(S)C(=O)NCC(=O)O (centres undefined)" measure_name=PL reported_value=134

Kindly consider the entry below.
Item CCCCNC(=O)NS(=O)(=O)c1ccc(C)cc1 [TOLBUTAMIDE] : provide PL
135

* * *

Species: Rattus norvegicus
Assay: Open TG-GATES - Regimen: Single
Type: toxicity, organism-based, Sprague-Dawley
Set-up: regimen Single, gender Male, age 6 weeks
Conditions: in vivo, po, 0 mg/kg, 6 h, tissue Plasma, route gavage, dose level Control
# binarize gamma-GTP: threshold 1 IU/L inclusive, high side yes (1), low side no (0)

Take a look at these entries with their results.
compound="CCO [ALCOHOL]" group_label="yes (1)"
compound="NS(=O)(=O)c1cc(C(=O)O)c(NCc2ccco2)cc1Cl [FUROSEMIDE]" group_label="no (0)"
compound="CC(=O)[C@@]1(O)CC[C@H]2[C@@H]3C=C(Cl)C4=CC(=O)CC[C@]4(C)[C@H]3CC[C@@]21C [CHLORMADINONE]" group_label="yes (1)"
compound="C=C[C@H]1C[N@@]2CC[C@H]1C[C@@H]2[C@@H](O)c1ccnc2ccc(OC)cc12 [QUINIDINE]" group_label="yes (1)"
compound="O=C(O)c1ccccc1Nc1ccccc1 [FENAMIC ACID]" group_label="yes (1)"
compound=Nc1ccc(Cc2ccc(N)cc2)cc1 group_label="yes (1)"
compound="CN(C)CCCN1c2ccccc2Sc2ccc(Cl)cc21 [CHLORPROMAZINE]" group_label="no (0)"
compound="CC(S)C(=O)NCC(=O)O (stereo not given) [TIOPRONIN]" group_label="yes (1)"

Has O=c1ccc2ccccc2o1 [COUMARIN] a recorded gamma-GTP greater than or equal to 1 IU/L?
yes (1)

* * *

Organism: Rattus norvegicus
Assay: Open TG-GATES - Regimen: Daily Repeat
Type: toxicity, organism-based, Sprague-Dawley
Design: regimen Daily Repeat, gender Male, age 6 weeks
Conditions: in vivo, po, 300 mg/kg, […], route gavage, dose level Middle, time 14 day
Measure name: TERMINAL_BW (g)
Answers are plain numbers, in g.

These recorded examples may help you get a feel for the data.
molecule="CCCCNC(=O)NS(=O)(=O)c1ccc(C)cc1 [TOLBUTAMIDE]" readout_unit=g reported_value=327.4
molecule=O=C(O)c1ccccc1Nc1ccccc1 readout_unit=g reported_value=344.9
molecule=CC(=O)[C@@]1(O)CC[C@H]2[C@@H]3C=C(Cl)C4=CC(=O)CC[C@]4(C)[C@H]3CC[C@@]21C readout_unit=g reported_value=297.5

State, in one line, measured TERMINAL_BW of CC(S)C(=O)NCC(=O)O (centres undefined)
313.9

* * *

Consider the following compounds; for each one, report its MCHC.
Species on record: Rattus norvegicus
Assay: Open TG-GATES - Regimen: Daily Repeat
Type: toxicity, organism-based, Sprague-Dawley
Parameters: regimen Daily Repeat, gender Male, age 6 weeks
Conditions: in vivo, po, 100 mg/kg, […], tissue Blood, route gavage, dose level Low, time 14 day
Answers are plain numbers, in %.

Below, 3 compounds whose answers are already recorded.
compound=CC(=O)[C@@]1(O)CC[C@H]2[C@@H]3C=C(Cl)C4=CC(=O)CC[C@]4(C)[C@H]3CC[C@@]21C reported_value=33.8
compound="CC(S)C(=O)NCC(=O)O (centres undefined)" reported_value=34.8
compound="CCCCNC(=O)NS(=O)(=O)c1ccc(C)cc1 [TOLBUTAMIDE]" reported_value=32.6

Given the compound O=C(O)c1ccccc1Nc1ccccc1 , write its reported MCHC.
34.5

* * *

Species on record: Rattus norvegicus
Assay: Open TG-GATES - Regimen: Daily Repeat
Assay type: toxicity, organism-based, Sprague-Dawley
Design: regimen Daily Repeat, gender Male, age 6 weeks
Conditions: in vivo, po, 300 mg/kg, […], tissue Plasma, route gavage, dose level Middle, time 7 day
Measure name: TG (mg/dL)
Give bare numbers, in mg/dL.

Here's what some known entries look like.
molecule="O=C(O)c1ccccc1Nc1ccccc1 [FENAMIC ACID]" measure_name=TG reported_value=91.6
molecule="CCCCNC(=O)NS(=O)(=O)c1ccc(C)cc1 [TOLBUTAMIDE]" measure_name=TG reported_value=135.8
molecule="CC(=O)[C@@]1(O)CC[C@H]2[C@@H]3C=C(Cl)C4=CC(=O)CC[C@]4(C)[C@H]3CC[C@@]21C [CHLORMADINONE]" measure_name=TG reported_value=205.8

Now consider the entry below.
In one line, give reported TG of the entry CC(S)C(=O)NCC(=O)O (centres undefined) [TIOPRONIN] .
146.2

* * *

Species: Rattus norvegicus
Experiment: Open TG-GATES - Regimen: Daily Repeat
Type: toxicity, organism-based, Sprague-Dawley
Design: regimen Daily Repeat, gender Male, age 6 weeks
Details: in vivo, po, 100 mg/kg, […], tissue Blood, route gavage, dose level Low, time 28 day
Hi there, I'd appreciate the recorded WBC for every entry that follows.
Answers are plain numbers, in x10_2/uL.

Illustrative cases are given below, each with its answer.
compound=CC(=O)[C@@]1(O)CC[C@H]2[C@@H]3C=C(Cl)C4=CC(=O)CC[C@]4(C)[C@H]3CC[C@@]21C reported_value=106.1
compound="CC(S)C(=O)NCC(=O)O (centres undefined)" reported_value=122.4
compound=O=C(O)c1ccccc1Nc1ccccc1 reported_value=94

Please turn your attention to the following entry.
Provide WBC value for the following compound: CCCCNC(=O)NS(=O)(=O)c1ccc(C)cc1 [TOLBUTAMIDE]
116.4
